- Test Details: LNCaP cell loss by flow event count, confirmation, cytotoxicity control for prostate differentiation activator project, single point (AID 1076);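 further: counts scatter-gated live cells after medium removal discards detached dead cells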
- Condition Parameters: flow cytometry event count, 4 d, at 100 µM, hits give low values
Strictly below 30 in cell event count: criterion met. Otherwise: criterion not met.

Examples from the recorded data:
*Q* hey, is cell event count for COc1ccc(Cc2nc(-c3ccc(-n4cccc4)cc3)no2)cc1OC lower than 30 or not?
*A* criterion met

*Q* hey, is cell event count for CCn1c(=S)ccc2ccc(OC)cc21 lower than 30 or not?
*A* criterion not met

*Q* hey, is cell event count for COc1cccc(Oc2cnc(N)nc2-c2ccc(OC)cc2O)c1 lower than 30 or not?
*A* criterion met

*Q* hey, is cell event count for Cc1cc(=O)c2ccccc2[nH]1 lower than 30 or not?
*A* criterion not met

*Q* hey, is cell event count for Cc1nc2c3cnn(-c4ccccc4)c3ncn2n1 lower than 30 or not?
*A* criterion not met

// next entry
*Q* hey, is cell event count for CN1CCN(c2cc3c(c4c2[nH]c2ccccc24)C(=O)CC(C)(C)C3)CC1 lower than 30 or not?
*A* criterion not met
